Biological target: T1, huNav1.7α(E281V) + β1-β2-β3 (human)
T1 construct: polyprotein as encoded; the entry already carries E281V; also called huNav1.7(E281V)-beta1-beta2-beta3
Assay: binding FACS, CHO FlpIn cells
assayEndpoint: pEC50
The scale used: pEC50 is minus the common logarithm of the concentration in molar units.

// query For F0103265B04 (VHH, entry includes the FLAG-HIS6 tag; also called F0103265B04 (parental)-FLAG-HIS6) VHH: EVQLVESGGGLVQPGGSLRLSCAAPSFIFSNNYMEWYRQAPGKQRDWVARITGRGNTNYLDSVKGRFTISRDDAKNTVYLEIDSLKPEDTAVYYCSALWYGGRAWGKGTLVTVSS , what is its reported pEC50?
// result 8.12

// query For F0103387G05 (VHH, entry includes the FLAG-HIS6 tag; also called F0103387G05 (parental)-FLAG-HIS6) VHH: EVQLVESGGGLVQAGGSLRLSCDASGRILRIGYMRWHRQGAGKQREFVARITDDSATDYADSVKGRFTISRDNAKNTVYLQMNNLNPEDTAVYYCEALVTASVRGGSIHSGTYWGRGTLVTVSS , what is its reported pEC50?
// result 8.64

// query For F0103464B09 (VHH, entry includes the FLAG-HIS6 tag; also called F0103464B09 (parental)-FLAG-HIS6; F103464B09) VHH: EVQLVESGGGLVQPGGSLRLSCATTSRAFIRDVFTGWYRRVPGKERELVARIYNGGNTNYADFAKGRFSISRDNAKKMVTLRMSNLKPEDTGVYYCLFSGTINTGREYRSGDYWGQGTLVTVSS , what is its reported pEC50?
// result 8.57

// query For F0103262C02 (VHH, entry includes the FLAG-HIS6 tag; also called F0103262C02 (parental)-FLAG-HIS6; F103262CO2) VHH: EVQLVESGGGLVQAGGSLTLSCAASGLPFGLYILGWIRRAPGKERDFVAAISRSGRDTVYANSVKGRFTISRDNAKNMVYLRMDNLRPEDTAAYYCAVDSVPRGTPTITESEYAIWGQGTLVTVSS , what is its reported pEC50?
// result 6.62

// query For F0103362B08 (VHH, entry includes the FLAG-HIS6 tag; also called F0103362B08 (parental)-FLAG-HIS6) VHH: EVQLVESGGGLVQAGGSLRLSCAASVRPFSTSAMGWFRQAPEKEREAVAGILWNGIVTYYADSVKGRFTISRDNAKNEVYLQMNKLKPEDTAVYYCALDRDYGGRSFSAYEYEYWGQGTLVTVSS , what is its reported pEC50?
// result 7.47

// query For F010301080 (VHH) VHH: EVQLVESGGGLVQPGGSLRLSCAASGMLFNANTQGWYRQAPGKQRELVAFIFWGGYVTYNDSVKGRFTISRDNAKRTMYLQMNSLKPEDSAIYYCSLSRYLGQGTLVTVSS , what is its reported pEC50?
// result 8.60

// query For F0103275B05 (VHH, entry includes the FLAG-HIS6 tag; also called F0103275B05 (parental)-FLAG-HIS6) VHH: EVQLVESGGGLVQPGGSLRLSCAASGSIFNINSMAWYRRAPGKQRELVASSTNGGSTNYADSVKGRFTISRDNAKRVYLQMNSLTPEDTAVYYCNALLQPSIYDISRTYWGQGTLVTVSS , what is its reported pEC50?
// result 7.62

Where do the numbers come from? From patent US20240002497A1.
